biological target: kappa opiate receptor (Cavia porcellus); construct: guinea pig cortices and cerebella were homogenized in 40 mL of Buffer A; from tissue; host or cells: guinea pig cortices and cerebella, crude membrane suspension; experiment: Inhibition of tritiated U69,593 binding to the kappa opiate receptor in guinea pig brain homogenates; conditions: [3H]U69,593 bound; 3 nm tritiated U69,593, guinea pig brain membranes
If the reported % Bound equals or exceeds 60%, assign true. If not, assign false.

The following molecules have reported results that may help.
* Cc1nc(C(C)C)c2n1C(C(C)C)C(=O)N2 (centres unmarked) [Pool 3] | false
* CC(C)c1nc(Cc2ccc(Cl)c(Cl)c2)n2c1NC(=O)C2C(C)C (racemic) [Pool 81] | true
* CCC(C)c1nc(C)n2c1NC(=O)C2C(C)C (centres unmarked) [Pool 54] | true

State whether the measured % Bound reaches 60%, counting equality as reaching it, for COc1ccc(Cc2nc(C(C)C)c3n2C(C(C)C)C(=O)N3)cc1 (racemic) [Pool 78]
true

* * *

molecular target: mu opiate receptor (Rattus norvegicus, UniProt P33535); construct: from tissue; host or cells: rat brain membranes/homogenate; experiment: Inhibition of [3H]DAMGO binding to the mu opiate receptor in rat brain homogenates; settings: percent inhibition of DAMGO binding; 0.08 mg of compound per milliliter, 7 nM 3H-labeled DAMGO, rat brain membranes
Sequence (P33535 whole entry): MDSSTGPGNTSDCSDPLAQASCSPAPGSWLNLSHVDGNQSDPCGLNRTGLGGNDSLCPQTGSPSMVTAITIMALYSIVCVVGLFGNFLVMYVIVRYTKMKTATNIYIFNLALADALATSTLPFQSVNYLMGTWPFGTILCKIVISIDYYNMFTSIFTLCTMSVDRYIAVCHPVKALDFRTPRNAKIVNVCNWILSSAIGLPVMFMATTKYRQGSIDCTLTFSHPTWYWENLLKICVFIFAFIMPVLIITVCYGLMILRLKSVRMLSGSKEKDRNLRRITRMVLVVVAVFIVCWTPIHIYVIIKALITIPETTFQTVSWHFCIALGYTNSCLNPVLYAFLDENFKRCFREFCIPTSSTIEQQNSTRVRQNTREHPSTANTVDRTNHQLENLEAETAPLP
Recorded % Inhibition for the following compounds
Report as a plain number; the unit % is understood.

* CC(C)c1nc(CCC2CCCC2)n2c1NC(=O)C2C(C)C (stereo not shown) | 33
* CC(C)c1nc(CC(C)c2ccccc2)n2c1NC(=O)C2C(C)C (mixture of isomers) | 38
* Cc1nc(C(C)C)c2n1C(C)C(=O)N2 (stereo not shown) | 29
* CCCCc1nc(C)n2c1NC(=O)C2C(C)C (stereo not shown) [Pool 44] | 33
* CC(C)c1nc(Cc2ccc(Br)cc2)n2c1NC(=O)C2C(C)C (racemic) | 61

mu opiate receptor (Rattus norvegicus, UniProt P33535) assay, compound CCC(CC)c1nc(C(C)C)c2n1C(C(C)C)C(=O)N2 (stereo not shown) , recorded % Inhibition = 35

mu opiate receptor (Rattus norvegicus, UniProt P33535) assay, compound Cc1nc(Cc2ccc(O)cc2)c2n1C(C(C)C)C(=O)N2 (stereo not shown) [Pool 48] , recorded % Inhibition = 56

mu opiate receptor (Rattus norvegicus, UniProt P33535) assay, compound CCC(C)C1C(=O)Nc2c(C(C)C)nc(C)n21 (stereo not shown) [Pool 21] , recorded % Inhibition = 45

mu opiate receptor (Rattus norvegicus, UniProt P33535) assay, compound Cc1nc(C(C)C)c2n1C(CC1CCCCC1)C(=O)N2 (stereo not shown) , recorded % Inhibition = 39

mu opiate receptor (Rattus norvegicus, UniProt P33535) assay, compound Cc1nc(C(C)C)c2n1C(C(C)C)C(=O)N2 (stereo not shown) [Pool 36] , recorded % Inhibition = 34

* * *

Recorded Minus NSB for the following compounds
biological target: kappa opiate receptor (Cavia porcellus, UniProt P41144); construct: guinea pig cortices and cerebella were homogenized in 40 mL of Buffer A; from tissue; host or cells: guinea pig cortices and cerebella, crude membrane suspension; assay: Inhibition of tritiated U69,593 binding to the kappa opiate receptor in guinea pig brain homogenates; conditions: mean minus non-specific binding; 3 nm tritiated U69,593, guinea pig brain membranes
Sequence (P41144 whole entry): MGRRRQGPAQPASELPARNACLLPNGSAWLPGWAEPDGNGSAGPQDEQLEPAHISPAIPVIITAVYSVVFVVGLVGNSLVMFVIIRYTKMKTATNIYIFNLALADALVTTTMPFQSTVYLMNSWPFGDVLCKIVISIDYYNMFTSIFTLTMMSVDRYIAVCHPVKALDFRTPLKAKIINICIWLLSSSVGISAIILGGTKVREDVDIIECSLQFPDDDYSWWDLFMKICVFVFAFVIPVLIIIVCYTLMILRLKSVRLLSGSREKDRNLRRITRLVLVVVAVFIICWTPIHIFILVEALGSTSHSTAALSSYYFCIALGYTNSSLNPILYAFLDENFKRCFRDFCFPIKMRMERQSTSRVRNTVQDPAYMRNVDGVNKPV
# output: bare number, no unit

* CC(C)c1nc(CCCc2ccccc2)n2c1NC(=O)C2C(C)C (racemic) | 638.15
* CCCCC1C(=O)Nc2c(C(C)C)nc(C)n21 (stereo not drawn) [Pool 27] | 827.30
* CCCC1C(=O)Nc2c(C(C)C)nc(C)n21 (stereo not drawn) [Pool 12] | 773.95
* CCCCC(CC)c1nc(C(C)C)c2n1C(C(C)C)C(=O)N2 (mixture of isomers) | 596.35
* Cc1nc(Cc2ccc(O)cc2)c2n1C(C(C)C)C(=O)N2 (racemic) [Pool 64] | 638.50
* CC(C)c1nc(CCC2CCCCC2)n2c1NC(=O)C2C(C)C (stereo not drawn) | 932.10
* CCC(C)Cc1nc(C(C)C)c2n1C(C(C)C)C(=O)N2 (stereo not drawn) | 759.50
* CC(C)c1nc(C(C)C)n2c1NC(=O)C2C(C)C (racemic) | 591.80

Minus NSB for Cc1cccc(Cc2nc(C(C)C)c3n2C(C(C)C)C(=O)N3)c1 (racemic) is 1112.55

* * *

target: kappa opiate receptor (Cavia porcellus); construct: guinea pig cortices and cerebella were homogenized in 40 mL of Buffer A; from tissue; host or cells: guinea pig cortices and cerebella, crude membrane suspension; experiment: Inhibition of tritiated U69,593 binding to the kappa opiate receptor in guinea pig brain homogenates; settings: mean minus non-specific binding; 3 nm tritiated U69,593, guinea pig brain membranes
If the reported Minus NSB equals or exceeds 700, assign t. If not, assign f.

The following compounds have reported results that may help.
• Cc1nc(C(C)C)c2n1C(C)C(=O)N2 (stereo not drawn) = t
• CCCc1nc(C)n2c1NC(=O)C2C(C)C (stereo not drawn) [Pool 45] = t
• Cc1nc(C(C)C)c2n1C(C(C)C)C(=O)N2 (stereo not drawn) [Pool 52] = t
• CC(C)c1nc(Cc2cccc(F)c2)n2c1NC(=O)C2C(C)C (racemic) = f
• CCCCc1nc(C)n2c1NC(=O)C2C(C)C (stereo not drawn) [Pool 44] = t
• CCCCCCc1nc(C(C)C)c2n1C(C(C)C)C(=O)N2 (racemic) = f

State whether the measured Minus NSB reaches 700, counting equality as reaching it, for CC(C)c1nc(Cc2ccc(F)cc2)n2c1NC(=O)C2C(C)C (racemic)
t

State whether the measured Minus NSB reaches 700, counting equality as reaching it, for Cc1nc(C(C)C)c2n1C(Cc1ccccc1)C(=O)N2 (stereo not drawn)
t

State whether the measured Minus NSB reaches 700, counting equality as reaching it, for CCOc1ccc(Cc2nc(C(C)C)c3n2C(C(C)C)C(=O)N3)cc1 (racemic)
t

State whether the measured Minus NSB reaches 700, counting equality as reaching it, for CC1CCC(Cc2nc(C(C)C)c3n2C(C(C)C)C(=O)N3)CC1 (stereo not drawn)
f

State whether the measured Minus NSB reaches 700, counting equality as reaching it, for Cc1ncc2n1C(C(C)C)C(=O)N2 (stereo not drawn)
t

State whether the measured Minus NSB reaches 700, counting equality as reaching it, for Cc1nc(CC(C)C)c2n1C(C(C)C)C(=O)N2 (stereo not drawn) [Pool 53]
t

* * *

biological target: kappa opiate receptor (Cavia porcellus); construct: guinea pig cortices and cerebella were homogenized in 40 mL of Buffer A; from tissue; host or cells: guinea pig cortices and cerebella, crude membrane suspension; test: Inhibition of tritiated U69,593 binding to the kappa opiate receptor in guinea pig brain homogenates; conditions: [3H]U69,593 bound; 3 nm tritiated U69,593, guinea pig brain membranes
If the reported % Bound equals or exceeds 70%, assign Fulfilled. If not, assign Not fulfilled.

- Cc1nc(Cc2ccccc2)c2n1C(C(C)C)C(=O)N2 (racemic) [Pool 63]: Fulfilled
- CC(C)c1nc(C(C)C)n2c1NC(=O)C2C(C)C (racemic): Not fulfilled
- CC(C)c1nc(CCCC2CCCCC2)n2c1NC(=O)C2C(C)C (centres unmarked): Not fulfilled
- CCC(c1ccccc1)c1nc(C(C)C)c2n1C(C(C)C)C(=O)N2 (mixture of isomers): Fulfilled
- Cc1nc(C(C)C)c2n1C(C(C)C)C(=O)N2 (centres unmarked) [Pool 36]: Fulfilled

State whether the measured % Bound reaches 70%, counting equality as reaching it, for CC(C)c1nc(C2CCCCC2)n2c1NC(=O)C2C(C)C (centres unmarked)
Fulfilled

State whether the measured % Bound reaches 70%, counting equality as reaching it, for CCCC1C(=O)Nc2c(C(C)C)nc(C)n21 (centres unmarked) [Pool 28]
Not fulfilled

State whether the measured % Bound reaches 70%, counting equality as reaching it, for Cc1nc(Cc2ccc(O)cc2)c2n1C(C(C)C)C(=O)N2 (racemic) [Pool 64]
Not fulfilled

* * *

target: mu opiate receptor (Rattus norvegicus, UniProt P33535); construct: from tissue; host or cells: rat brain membranes/homogenate; test: Inhibition of [3H]DAMGO binding to the mu opiate receptor in rat brain homogenates; conditions: percent inhibition of DAMGO binding; 0.08 mg of compound per milliliter, 7 nM 3H-labeled DAMGO, rat brain membranes
recorded-metric: % Inhibition (%)
Report as a plain number; the unit % is understood.

Completed entries (count: 3):
* CC(C)c1nc(C(C)(C)C)n2c1NC(=O)C2C(C)C (stereo not shown) | 35
* CCC(c1ccccc1)c1nc(C(C)C)c2n1C(C(C)C)C(=O)N2 (mixture of isomers) | 34
* CCCCC(CC)c1nc(C(C)C)c2n1C(C(C)C)C(=O)N2 (mixture of isomers) | 40

% Inhibition for COc1ccc(Cc2nc(C(C)C)c3n2C(C(C)C)C(=O)N3)cc1OC (racemic) is 41

* * *

Recorded Minus NSB* for the following molecules
target: mu opiate receptor (Rattus norvegicus, UniProt P33535); construct: from tissue; host or cells: rat brain membranes/homogenate; assay: Inhibition of [3H]DAMGO binding to the mu opiate receptor in rat brain homogenates; settings: mean minus non-specific binding; 0.08 mg of compound per milliliter, 7 nM 3H-labeled DAMGO, rat brain membranes

Completed entries (count: 4):
- Cc1nc(Cc2ccccc2)c2n1C(C(C)C)C(=O)N2 (stereo not drawn) [Pool 47]: 589.80
- CCOc1ccc(Cc2nc(C(C)C)c3n2C(C(C)C)C(=O)N3)cc1 (racemic): 621.10
- Cc1nc(C(C)C)c2n1C(C(C)C)C(=O)N2 (stereo not drawn) [Pool 3]: 666.05
- CCCCc1nc(C)n2c1NC(=O)C2C(C)C (racemic) [Pool 60]: 594.80

We next turn to a different molecule, shown below.
Minus NSB* for CCCCC(CC)c1nc(C(C)C)c2n1C(C(C)C)C(=O)N2 (mixture of isomers) is 573.35

Where these numbers come from: patent US6545032B1
